# Test system: Acinetobacter baumannii (ATCC 19606)
# ASSAY REMARKS: MIC, broth microdilution
# CONDITION NOTES: Acinetobacter baumannii, ATCC19606, read-out: Compound MIC on Bacterial Strains: A. baumannii ATCC 19606
Hi there, I'd appreciate the recorded MIC for every entry that follows.

Data request: Give the measured MIC for CN[C@@H]1[C@@H](O)[C@@H](O[C@@H]2[C@@H](O)[C@H](O[C@H]3O[C@H](CN)CC[C@H]3N)[C@@H](N)C[C@H]2NC(=O)[C@@H](O)[C@H](N)CO)OC[C@]1(C)O [Compound 20]
Data returned: > 8 µg/mL

Data request: Return value of MIC for input CN[C@@H]1C(O)[C@@H](OC2C(O)C(O[C@H]3O[C@H](CN)CCC3N)[C@@H](N)C[C@H]2NC(=N)CO)OCC1(C)O (some centres unmarked) [Compound 22] , no commentary.
Data returned: > 8 µg/mL

Data request: In one line, give reported MIC of the entry CN[C@@H]1[C@@H](O)[C@@H](O[C@@H]2[C@@H](O)[C@H](O[C@H]3O[C@H](CNCC(O)CO)CC[C@H]3N)[C@@H](N)C[C@H]2NC(=O)[C@@H](O)CCN)OC[C@]1(C)O (some centres unmarked) [Compound 8] .
Data returned: > 8 µg/mL

Data request: Give MIC for CN[C@@H]1[C@@H](O)[C@@H](O[C@@H]2[C@@H](O)[C@H](O[C@H]3O[C@H](CNCCF)CC[C@H]3N)[C@@H](N)C[C@H]2NC(=O)[C@@H](O)CN)OC[C@]1(C)O [Compound 46]
Data returned: > 8 µg/mL

Data request: Find the measured MIC of CN[C@@H]1[C@@H](O)[C@@H](O[C@@H]2[C@@H](O)[C@H](O[C@H]3O[C@H](CN)CC[C@H]3N)[C@@H](N)C[C@H]2NC(=O)[C@@H](O)[C@H](N)CN)OC[C@]1(C)O [Compound 3] and report it.
Data returned: > 8 µg/mL
